Sourced from patent US20220227809A1

Molecular target: norovirus GII.3 TCH strain virus-like particle (VLP) (norovirus GII.3 TCH strain)
Assay: BLI (BLItz), biotinylated peptide on SA chip, VLP in solution
Ends that are not written are not given here.
observed_property: pKd
The value called pKd is obtained by taking minus log10 of the concentration in mol/L.

Completed entries (count: 5):
[[record]]
binder = "FVWSRRTGLY (also: biotinylated via PEG3 (AEEEA)-Trp spacer, attachment site and resin-derived C-terminal Lys or Cys not given here) [norovirus-binding peptide of SEQ ID NO: 205]"
observed = 7.50

[[record]]
binder = "FVWRRRAGLY (also: biotinylated via PEG3 (AEEEA)-Trp spacer, attachment site and resin-derived C-terminal Lys or Cys not given here) [norovirus-binding peptide of SEQ ID NO: 167]"
observed = 8.86

[[record]]
binder = "ANYRWSRSIK (also: biotinylated via PEG3 (AEEEA)-Trp spacer, attachment site and resin-derived C-terminal Lys or Cys not given here) [norovirus-binding peptide of SEQ ID NO: 263]"
observed = 7.24

[[record]]
binder = "CKARSARGVS (also: biotinylated via PEG3 (AEEEA)-Trp spacer, attachment site and resin-derived C-terminal Lys or Cys not given here) [norovirus-binding peptide of SEQ ID NO: 288]"
observed = 8.16

[[record]]
binder = "RFLVPVVKVM (also: biotinylated via PEG3 (AEEEA)-Trp spacer, attachment site and resin-derived C-terminal Lys or Cys not given here) [norovirus-binding peptide of SEQ ID NO: 103]"
observed = 8.09


Query binder follows.
Query :: Any idea what its pKd is? The binder is RSMSLHVSMT (also: biotinylated via PEG3 (AEEEA)-Trp spacer, attachment site and resin-derived C-terminal Lys or Cys not given here) [norovirus-binding peptide of SEQ ID NO: 283]
Result :: 9.04
